Read-out: Low-density lipoprotein receptor (LDLR), LDLR (gene 3949)
assay: BSK_CASM3C_LDLR: BioMAP Diversity Plus: CASM3C Assay for Low-density lipoprotein receptor (LDLR) Biomarker Activity (AID 2283045);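 also: LDLR protein level on the cell surface quantified by ELISA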
measurement.setup: primary human coronary artery smooth muscle cells; actives raise or lower the signal
Active and inactive are the calls of the source. The calls were made as follows: active = hit-call score of the fitted dose curve at least 0.9, where 1 is the maximum; inactive = score below 0.9.
metric.name: AC50

Known results for compounds:
compound=CC1(C)[C@H](C(=O)O[C@H](C#N)c2cccc(Oc3ccccc3)c2)[C@@H]1C=C(Br)Br experimental_result=inactive
compound=CNC(=O)Oc1cc(C)c(SC)c(C)c1 experimental_result="7.52 µM (active)"
compound=O=S(=O)(c1ccccc1)c1ccccc1 experimental_result=inactive
compound=COc1ccc(CO)cc1 experimental_result=inactive
compound=Clc1ccc(-c2ccccc2)cc1 experimental_result=inactive
compound=CCc1cc(C)cc(CC)c1-c1c(OC(=O)C(C)(C)C)n2n(c1=O)CCOCC2 experimental_result="2.79 µM (active)"

# AC50 lookup, item `Nc1ccc(-c2ccc(N)c(N)c2)cc1N`
inactive

# AC50 lookup, item `O=C(CCl)c1ccccc1`
33 µM (active)

# AC50 lookup, item `CC(=O)/C=C/c1ccccc1`
inactive

* * *

Read-out: Vascular cell adhesion molecule 1 (VCAM1), VCAM1 (gene 7412)
assay: BSK_4H_VCAM1: BioMAP Diversity Plus: 4H Assay for Vascular cell adhesion molecule 1 (VCAM1) Biomarker Activity (AID 2283033)
measurement.setup: primary human endothelial cells (HUVEC); actives raise or lower the signal
Calls of active or inactive are those of the source. The calls were made as follows: active = hit-call score of the fitted dose curve at least 0.9, where 1 is the maximum; inactive = score below 0.9.
Pick one: active, inactive

compound="CC(C)(C)C(O)C(Oc1ccc(-c2ccccc2)cc1)n1cncn1 (stereo not drawn)" answer_label=active

Then there is this compound:
I would be grateful if you could indicate the recorded call for `c1ccc(Nc2ccc3ccccc3c2)cc1` .
active

* * *

assay: ATG_TCF_b_cat_CIS: Attagene CIS-FACTORIAL HepG2 Assay for human T-Cell-Factor with beta-catenin (TCF/b-cat) (AID 2282965)
measurement.setup: HepG2 TCF/beta-catenin cis-reporter transcription, actives raise or lower the signal
The source made the active and inactive calls. How the source made its calls: active means hit-call score of the fitted dose curve at least 0.9, where 1 is the maximum; inactive means score below 0.9.
Pick one: yes = active, no = inactive

Observe how each entry below is paired with its result.
compound=C=C(Cl)Cl answer_label=no
compound=CC(=O)/C=C/c1ccccc1 answer_label=no
compound=Nc1ccc(-c2ccc(N)c(N)c2)cc1N answer_label=no

I would be grateful if you could indicate the recorded call for `C[N+](C)(C)CC(=O)O` .
no

I would be grateful if you could indicate the recorded call for `CCN(CC)C(=S)S` .
no

I would be grateful if you could indicate the recorded call for `COC(=O)c1ccccc1S(=O)(=O)NC(=O)Nc1nc(C)cc(C)n1` .
no

I would be grateful if you could indicate the recorded call for `Cc1ccc(N(SC(F)(Cl)Cl)S(=O)(=O)N(C)C)cc1` .
yes

I would be grateful if you could indicate the recorded call for `CNC(=O)Oc1cc(C)c(SC)c(C)c1` .
no

I would be grateful if you could indicate the recorded call for `N#CC(c1ccccc1)c1ccccc1` .
no

I would be grateful if you could indicate the recorded call for `CC(C)CCCCCCCOC(=O)c1ccccc1C(=O)OCCCCCCCC(C)C` .
no

I would be grateful if you could indicate the recorded call for `CC1(C)[C@H](C(=O)O[C@H](C#N)c2cccc(Oc3ccccc3)c2)[C@@H]1C=C(Br)Br` .
no
